Values from PubChem BioAssay

Experiment: RAM signaling pathway blockade in yeast – S. cerevisiae, Pdr1DBD-CYC8 efflux-inhibited sensitized strain, primary screen (AID 1298);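 further: 0% = DMSO untreated cells without growth and 100% = 10 µM 1-NA-PP1 full growth; higher means more yeast growth rescued from 5-FOA killing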
Conditions: S. cerevisiae cbk1-as DSE1-URA3 strain, 5-FOA growth OD615, 2 d; at 50 µM; stronger effect = higher value
The source made the active and inactive calls.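 How the source made its calls: active means RAM network inhibition above 8.4% in each of two replicates, 3 SD over the compound average; inconclusive means above 8.4% inhibition in only one replicate; inactive means 8.4% inhibition or less in each replicate.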
quantity_kind: RAM network inhibition

RAM network inhibition recorded for this compound, CCCCC(=O)OCCNC(=O)c1cc2ccccc2oc1=O , is 2.46% (inactive)

Record COc1ccc(C2CC(c3ccc(F)cc3)Nc3nc(N)nn32)cc1OC (stereo unspecified) , field RAM network inhibition: 7.75% (inactive)

GET /value?item= Cc1nnc(Sc2nc3c(c(=O)[nH]c(=O)n3C)n2CCc2ccccc2)s1 &field=RAM network inhibition returns 8.3% (inactive)

RAM network inhibition reading for CC(C)N1C(=O)C2C(c3ccccc3O)NC(C)(C(=O)O)C2C1=O (stereo unspecified) : 1.54% (inactive)

Entry COc1cc(C(C)=O)ccc1OC(=O)C(C)N1C(=O)c2ccccc2C1=O (stereo unspecified) — recorded RAM network inhibition = 3.8% (inactive)

Notebook: CCOC(=O)c1ccc(NC(=O)c2cccc(S(=O)(=O)N3CCOCC3)c2)cc1 , RAM network inhibition read as 7.23% (inactive)

CN(C)CCCNCCCNC(=O)/C(=N\O)c1ccccn1 has a reported RAM network inhibition of 2.45% (inactive)

Record summary for CCOC(=O)c1cc2c(=O)n3cccc(C)c3nc2n(CCCOC)c1=NC(=O)c1cccnc1 : reported RAM network inhibition = 6.01% (inactive)

Input COc1ccc(CCNC(=O)c2ccco2)cc1 . Output RAM network inhibition: -1.03% (inactive)

Record summary for COC(=O)CCc1nc2ccccc2[nH]c1=O : reported RAM network inhibition = 2.15% (inactive)

Field RAM network inhibition (entry CC1CCCCC1NC(=O)C1CCN(C(=O)c2sccc2-n2cccc2)CC1 (stereo unspecified) ) reads 4.86% (inactive)

Cc1onc(-c2ccccc2)c1C(=O)NC(C)C yielded RAM network inhibition of 3.45% (inactive)

RAM network inhibition reported for this compound COc1ccc(C(=O)c2cnc(C(C)C)n2C)cc1 : 4.97% (inactive)

Item: Cc1ccc(C(=O)NCCCn2ccnc2)o1 | RAM network inhibition: 3.73% (inactive)

In plain terms, O=C(NC1CCCCC1)C1CCN(S(=O)(=O)c2cccc3cccnc23)CC1 has a documented RAM network inhibition of 1.34% (inactive)

The value of RAM network inhibition measured for the compound COc1ccc(OC)c(NC(=O)C2CCCN2C(=O)C2CCC(C)CC2)c1 (stereo unspecified) turned out to be -0.32% (inactive)

Field RAM network inhibition (entry O=C(O)CCn1c(-c2ccccc2)cc2c1CCCC2=O ) reads 0.47% (inactive)

Per the records, this compound ( Cn1nnc2c(NCc3ccco3)nccc21 ) has RAM network inhibition equal to 0.93% (inactive)

// RAM network inhibition value for COc1ccc(CNC(=O)c2ccc(NC(=O)C3CCCO3)cc2)cc1 (stereo unspecified) : 8.83% (inactive)

Quick note, RAM network inhibition for c1cncc(CNc2nc(N3CCOCC3)nc(N3CCOCC3)n2)c1 landed at 1.95% (inactive)

What the record says about O=C(c1cnc2n(c1=O)CCS2)N1CCN(C(c2ccccc2)c2ccc(Cl)cc2)CC1 (stereo unspecified) : RAM network inhibition is 2.72% (inactive)

The recorded RAM network inhibition for entry Cc1oc(-c2cccc(Cl)c2)nc1CN1CCCC(C(=O)NC(C)c2ccc3c(c2)OCCO3)C1 (stereo unspecified) equals 5.6% (inactive)

Noted for Cn1cc(S(=O)(=O)CC(=O)Nc2ccc3c(c2)OCCO3)c2ccccc21 : its RAM network inhibition reads 3.07% (inactive)

The recorded RAM network inhibition for CCc1cc(=O)oc2cc(C)cc(O)c12 is 1.99% (inactive)

The compound listed as CC(=O)Nc1nnc(C)s1 has a reported RAM network inhibition of 1.53% (inactive)

Reported RAM network inhibition of COC(=O)Cn1c(=NC(=O)CSC(C)=O)sc2ccccc21 : 5.91% (inactive)

Form: compound = Cc1ccccc1CN1CCNC(=O)C1CC(=O)O (stereo unspecified) ; RAM network inhibition = -0.64% (inactive)

Looking up CC(=O)Oc1ccc(N2C(=O)C3C(C2=O)C2(C)C=CC3(C)O2)cc1 (stereo unspecified) , I see its RAM network inhibition listed as 0.09% (inactive)

For CC(C)n1c(CNC(=O)c2ccccc2)nc2ccccc21 the compound record lists RAM network inhibition as 1.5% (inactive)

Reported RAM network inhibition of CCOc1nonc1C(=N)/C(C(C)=O)=C(\C)O : -0.48% (inactive)

Looking up O=C(CSc1ccc2nnc(-c3ccc(F)cc3)n2n1)N1CCOCC1 , I see its RAM network inhibition listed as 0.47% (inactive)

Data point: CC(CCCC(C)(C)O)NCCO (stereo unspecified) ; RAM network inhibition = -0.17% (inactive)

Input COc1ccc(C(=O)N2CCN(c3c(C)cccc3C)CC2)cc1OC . Output RAM network inhibition: 1.36% (inactive)

Looking up CCOc1ccccc1-c1nc(C(N)=O)c2[nH]c(=O)n(-c3ccc(F)cc3)c2n1 , I found its RAM network inhibition recorded as -0.71% (inactive)

Notebook: CC1=C(C(N)=O)C(c2ccccn2)n2nc(SCc3ccccc3Cl)nc2N1 (stereo unspecified) , RAM network inhibition read as 0.26% (inactive)

Kindly note the recorded RAM network inhibition for CCOC(=O)c1ccc(N2C(=O)CC(C3CCCO3)C2=O)cc1 (stereo unspecified) , which is 2.15% (inactive)

RAM network inhibition reported for this compound CCN(CCNC(=O)CCCn1nc(C)n2c(cc3sccc32)c1=O)c1ccccc1 : 6.63% (inactive)

Record COc1ccccc1CNC(=O)CCS(=O)(=O)c1cccs1 . Reported RAM network inhibition: 0.82% (inactive)

The compound listed as CCOC(=O)c1[nH]c(C)c(C(=O)Nc2ccc(C)c(C)c2)c1C shows RAM network inhibition equal to 1.84% (inactive)

Summary for this compound, CCOc1ccc(-n2c(SCC(=O)Nc3cc(C)on3)nc3c([nH]c4ccccc43)c2=O)cc1 : RAM network inhibition is 5.59% (inactive)

Lab book: RAM network inhibition of c1ccc(Nc2nc(N3CCCCC3)nc(N3CCNCC3)n2)cc1 noted as 3.63% (inactive)

----------
Assay: reversal of MRP1-mediated doxorubicin resistance, pilot screen, H69AR cells, doxorubicin co-treatment (AID 601)
Settings: H69AR cells, CellTiter-Glo, 72 h; compound alone cytotoxicity; at 10 µM
Field: viability. Provide a value for each of the compounds that follow.
Quick reminder: number only, in %, skip the unit.

Lab note: measured viability of CCN(CC)S(=O)(=O)c1ccc(NC2CCCc3ccccc32)nc1 (stereo not drawn) was 86

// sample O=C(CS(=O)(=O)Cc1ccccc1)N1CCc2ccccc2C1 , its viability was 101

Field viability (entry CCOC(=O)c1[nH]c2ccccc2c1NC(=O)CCN1CCN(C(=O)OCC)CC1 ) reads 96.8

----------
Assay: 384-well plate pilot, post-Golgi transport modulator project, inhibition of yeast transport mutant growth (AID 636)
Conditions: absorbance 615 nm, about 18 h, stronger effect = higher value
Give measured inhibition for each item. Keep answers brief.
Write it as a number; the unit % goes unstated.

Short answer for COc1cccc(OC)c1C(=O)n1nc(C)cc1C : inhibition was 1.18

Record O=C(COC(=O)c1ccc(Br)o1)Nc1ccc(S(=O)(=O)N2CCCC2)cc1 . Reported inhibition: -6.35

Field inhibition (entry Cc1ccc(C)c(-c2nc3cc(N)ccc3o2)c1 ) reads -1.18

Value of measured inhibition for the entry CCN(CC)CCN1C(=O)Cn2c(C)c(C)c3cccc1c32 : -7.47

Form field inhibition, entry CCOc1ccc(C2C=C(c3ccc(F)cc3)Nc3ncnn32)cc1 (stereo not drawn) : -4.42

Per the record, O=C(CSc1ncnc2c1oc1ccccc12)Nc1ccccc1C(F)(F)F has inhibition of -5.6

GET /value?item= Cn1c(SCC(=O)O)nnc1C1CCCCC1 &field=inhibition returns 0.27

Entry under test: CCC(C)(C(=O)NC1CCCC1)N(C(=O)c1cnccn1)c1c(C)n(C)n(-c2ccccc2)c1=O (stereo not drawn) . Its inhibition was 2.34

Recorded result, CC1CCN(Cc2ccc(-c3nn[nH]n3)cc2)CC1 , inhibition: 1.04

Short answer for CC(C)CCn1c(N)c(S(=O)(=O)c2cccs2)c2nc3ccccc3nc21 : inhibition was -3.95

Record COc1ccc(S(=O)(=O)N2CCC(C(=O)c3ccc4c(c3)OCCO4)CC2)cc1 , field inhibition: -1.95

Memo: Nn1c(SCC(=O)NC2CCCCC2)nnc1C1CC1 , reported inhibition: -0.52

So for c1ccc(CC2CCN(C(c3cccs3)c3nnnn3C3CCCC3)CC2)cc1 (stereo not drawn) , the logged inhibition turned out to be 1.92

// inhibition lookup, compound = CCn1c(C(=O)OC)cc2c1ccn2-c1ccc(F)cc1 , result: -5.13

Record O=C1c2ccccc2C(=O)N1Cc1nc2ccccc2c(=O)n1CCN1CCOCC1 . Reported inhibition: -1.18

The reported inhibition of the compound O=C(O)COc1ccc(Oc2ccccc2)cc1 was 0.26

The compound Cc1cc2cc(CN(CCCN3CCOCC3)C(=O)NC3CCCCC3)c(=O)[nH]c2cc1C showed inhibition equal to -5.07

compound CCCC1C(C#N)=C(N)Oc2n[nH]c(C(C)(C)C)c21 (stereo not drawn) , inhibition observed: -6.97

Item: CC(=O)OCC(=O)c1ccc2ccn(C(C)=O)c2c1 | inhibition: -5.33

Measured inhibition of CCOc1ccc(Cl)cc1S(=O)(=O)N1CCCC1 : -4.34

So, COc1cccc(Oc2cn[nH]c2-c2ccc(O)cc2O)c1 ? Its inhibition was 0.26

Entry under test: CCOC(=O)c1[nH]c2ccccc2c1NC(=O)CCN1CCN(C(=O)OCC)CC1 . Its inhibition was 1.84

# inhibition (compound: CCOc1cc(-c2nc(-c3ccc(C)nc3OCC)no2)cc(OCC)c1OCC ) is 2

Given item CNC(=O)c1nnn(Cc2ccccc2)c1NC(C)=O , the value recorded as its inhibition is 1.35

Note to self: inhibition recorded for CC(Oc1ccc(Br)cc1)C(=O)N1CCc2ccccc21 (stereo not drawn) was -2.76

// CCCOC(=O)CSc1nc(N)c(C#N)c(CC)c1C#N : inhibition value = 2

Short answer for CC1CCc2c(sc(N)c2C(N)=O)C1 (stereo not drawn) : inhibition was -0.26

Input CN(C)S(=O)(=O)c1ccc(/C(O)=C2/C(=O)C(=O)N(CCN3CCCCC3)C2c2cccnc2)cc1 (stereo not drawn) . Output inhibition: 6.54

Measured inhibition, COc1cccc(-c2noc(C3CCCN(C(=O)Cc4ccccc4)C3)n2)c1 (stereo not drawn) : -0.65

Entry COc1ccccc1N1CCN(C(=O)C(Cc2ccccc2)NC(=O)C2CCCCC2)CC1 (stereo not drawn) ; inhibition = -5.84

Form: compound = CCC(=O)N1CCc2cc(Br)cc(S(=O)(=O)N3CCCCCC3)c21 ; inhibition = -3.03

The compound identified as COc1cccc(OCC(O)CN2CCN(CCO)CC2)c1 (stereo not drawn) registered its inhibition at 1.18

// CCn1c(=O)cc(OCC(=O)NC2CCCCC2)c2ccccc21 : inhibition value = -0.77

Recorded inhibition (compound c1cn(CC2(Cn3ccnc3)COC2)cn1 ): -3.77

The value of inhibition measured for the compound Cn1c2c(c(=O)n(C)c1=O)C(c1cccc(Br)c1)C1C(=O)c3ccccc3C1=N2 (stereo not drawn) turned out to be 0.27

The compound identified as Cc1cc(C)c2c(n1)nn1c(C3CC3)cc(C(F)(F)F)nc21 registered its inhibition at -5.41

What the record says about CCOC(=O)c1c(C)c(C(=O)NCCN2CCOCC2)c(C)n1C : inhibition is -10.7

// inhibition value for O=C(COc1ccccc1)NCC(c1cccs1)N1CCOCC1 (stereo not drawn) : 1.2
